Measured GI50 accompanies every entry in the list below.
System: SK-MEL-5
Protocol text: NCI tumour cell line growth inhibition, 48 h
Active and inactive are the calls of the source. Rule as the data show it: active = GI50 up to about 1.1 µM and inactive = higher.

What does the data say about its GI50? Entry: "O=C1C[C@H]2[C@@H](O1)[C@@H](O)CN1C(=O)c3ccccc3[C@H]21"
> 100 µM (inactive)

What does the data say about its GI50? Entry: CC(C)(C)NCC(COc1ccc([N+](=O)[O-])cc1)OP(c1ccccc1)c1ccccc1 (stereo unspecified)
18.8 µM (inactive)

What does the data say about its GI50? Entry: CCCCCCCCCCCCCCCCCCN(C)CC(COC)OP(=O)([O-])OCC[N+](C)(C)C (stereo unspecified)
9.44 µM (inactive)

---

Tested on: EKVX
Protocol text: NCI tumour cell line growth inhibition, 48 h
The source made the active and inactive calls. Rule as the data show it: active = GI50 up to about 1.1 µM and inactive = higher.
// allowed return values: active, inactive

Reference set, count: 2
CC(=O)O[C@H]1C(=O)[C@@]2(C)[C@H]([C@H](OC(=O)c3ccccc3)[C@]3(O)C[C@H](OC(=O)[C@H](O)[C@@H](NC(=O)c4ccco4)c4ccccc4)C(C)=C1C3(C)C)[C@]1(OC(C)=O)CO[C@@H]1C[C@@H]2O	active
CC1=[N+]([O-])C(C)(C)N(O)C1(C)C	inactive

Field: outcome | Entry: "Nc1ccc(C(=O)N/C(=C\c2ccc3c(c2)OCO3)c2nc3ccc4c(c3[nH]2)C(=O)c2ccccc2C4=O)cc1"
inactive

Field: outcome | Entry: "O=C(CC(=O)c1cccc2ccccc12)C(=O)Nc1nccs1"
inactive

Field: outcome | Entry: "COc1cc(/C=C/C(=O)c2sc(Nc3ccccc3)nc2C)ccc1O"
inactive

Field: outcome | Entry: "COc1ccccc1N1CCN(CCCCNC(=O)c2ccc([N+](=O)[O-])o2)CC1"
inactive

Field: outcome | Entry: [O-][S+]1Nc2cccc(C(F)(F)F)c2S1 (centres undefined)
inactive

Field: outcome | Entry: "CCOC(=O)c1c(O)cc(=O)[nH]c1N1CCOCC1"
inactive

Field: outcome | Entry: O=[N+]([O-])c1nccn1CC(O)c1ccccc1 (centres undefined)
inactive

---

System: T47D
Protocol text: NCI tumour cell line growth inhibition, 48 h
Calls of active or inactive are those of the source. Rule as the data show it: active = GI50 up to about 1.1 µM and inactive = higher.
Measured attribute: GI50

Solved cases (2 shown):
CC1OC(OC2C(CO)OC(O[C@H]3CC[C@@]4(C)C(=CC[C@H]5[C@@H]6C[C@@H]7O[C@](O)(CC[C@H](CO)COC8OC(CO)C(O)C(O)C8O)[C@@H](C)[C@@H]7[C@@]6(C)CC[C@@H]54)C3)C(OC3OC(C)C(O)C(O)C3O)C2O)C(O)C(O)C1O (stereo not given in full)	> 100 µM (inactive)
CCOC(=O)c1cc2nc3ccccc3c(=O)n2c2ccccc12	> 10 µM (inactive)

What does the data say about its GI50? Entry: "COC(=O)c1c(C)[n+]([O-])c2cc(Cl)c(Cl)cc2[n+]1[O-]"
15.8 µM (inactive)

What does the data say about its GI50? Entry: "COC(=O)/C=C1/OC(c2ccc(C)cc2C)=CC1=O"
20.1 µM (inactive)

What does the data say about its GI50? Entry: "CCCn1cnc2c(SCc3ccc(Cl)cc3)nc(N)nc21"
18.9 µM (inactive)

What does the data say about its GI50? Entry: "C=CC(C)(C)n1cc(C2=C(O)C(=O)C(c3c(CC=C(C)C)[nH]c4ccccc34)=C(O)C2=O)c2ccccc21"
2.47 µM (inactive)

What does the data say about its GI50? Entry: "O=[N+]([O-])c1cc2c(c3nonc13)OCCCCO2"
26.5 µM (inactive)

What does the data say about its GI50? Entry: "CCOC(=O)c1ccc(NC(NC(=O)CC)(C(F)(F)F)C(F)(F)F)cc1"
> 100 µM (inactive)

What does the data say about its GI50? Entry: "COc1c2ccccc2c(OC)c2nc(C)ccc12"
> 100 µM (inactive)

What does the data say about its GI50? Entry: "O=C(NC1CCCCC1)c1cc2ccccc2cc1O"
42.6 µM (inactive)

---

Test system: NCI-H522
Protocol text: NCI tumour cell line growth inhibition, 48 h
Calls of active or inactive are those of the source. Cut-off read from the data, not from the text of the source: active = GI50 up to about 1.1 µM and inactive = higher.
// allowed return values: active, inactive

Field: outcome | Entry: "CCCCCCCCCCCCC/C=C1\C[C@H](O)COC1=O"
inactive

Field: outcome | Entry: "O=C(Nc1ccccc1)Nn1c(-c2cccs2)nc2ccc(I)cc2c1=O"
inactive

Field: outcome | Entry: O=C(c1cccnc1)N1N=C(c2ccc3c(c2)OCO3)CC1(O)c1cc(F)c(Cl)cc1Cl (stereo unspecified)
inactive

Field: outcome | Entry: "O=C1c2ccccc2C(=O)N1CCCSc1ccccc1"
inactive

Field: outcome | Entry: CC1(C)CC(=O)C2=C(C1)NC(=S)C(C#N)C2c1ccccc1 (stereo unspecified)
inactive

---

Tested on: XF498
Protocol text: NCI tumour cell line growth inhibition, 48 h
Activity calls are given as the source filed them. Rule as the data show it: active = GI50 up to about 1.1 µM and inactive = higher.
// allowed return values: true (1) for active, false (0) for inactive

Reference set, count: 3
COc1ccc(CC2C(=O)NC(C)C(=O)N(C)C3Cc4ccc(cc4)Oc4cc(ccc4O)CC(C(=O)NC(C)C(=O)NC(C)C(=O)N2C)N(C)C3=O)cc1 (stereo not given)	true (1)
O=c1nc2sc3ccc4ccccc4c3n2nc1-c1ccccc1	false (0)
O=[N+]([O-])c1nccn1CC(O)c1ccccc1 (stereo not given)	false (0)

Field: outcome | Entry: "COc1ccc(/C=C/C(=O)C(C)(C)CN2CCCCC2)cc1"
false (0)

Field: outcome | Entry: COc1ccc(C2Cc3cc(OC)c(OC)c(OC)c3C2)cc1 (stereo not given)
false (0)

Field: outcome | Entry: "C[C@H](N)C(=O)N[C@@H]1[C@H]2C(=C(O)C[C@@H](O)[C@@H]2O)C(=O)O[C@]1(C)C(Cl)Cl"
true (1)

Field: outcome | Entry: "CC1=NN2C(c3ccc(C)cc3)=CSC2=NC(C)(C)C1"
false (0)

Field: outcome | Entry: "O=c1c2ccccc2[nH]c2cc(O)cc(O)c12"
false (0)

Field: outcome | Entry: "O=C(N/C(=C\c1ccc(F)cc1)c1nc2ccccc2[nH]1)c1ccccc1"
false (0)

Field: outcome | Entry: "CCC(=O)OC[n+]1ccc2c(C)c3[nH]c4ccc(OC)cc4c3c(C)c2c1"
false (0)

---

System: SNB-75
Protocol text: NCI tumour cell line growth inhibition, 48 h
Active and inactive are the calls of the source. Cut-off read from the data, not from the text of the source: active = GI50 up to about 1.1 µM and inactive = higher.
// allowed return values: active, inactive

C[C@@H]1O[C@@H]2OCC[C@@H]2C2=C1C(=O)c1ccccc1C2=O	inactive
COc1nc(NC2OC(COC(C)=O)C(OC(C)=O)C(OC(C)=O)C2OC(C)=O)c(/N=C/C=N/c2c(NC3OC(COC(C)=O)C(OC(C)=O)C(OC(C)=O)C3OC(C)=O)nc(OC)n(C)c2=O)c(=O)n1C (stereo unspecified)	inactive
CC(=O)OC1COC(n2c(=S)n(-c3ccc(C)cc3)c(=O)c3ccccc32)C(OC(C)=O)C1OC(C)=O (stereo unspecified)	inactive
Cc1cc(S(=O)(=O)O)ccc1/N=N/c1ccc(/N=N/c2c(O)ccc3ccccc23)c(C)c1	inactive

Field: outcome | Entry: COC(=O)CCC(=O)c1ccc2c(c1)CC1(C2)Cc2ccc3c(c2C1)CCCC3=O (stereo unspecified)
inactive

Field: outcome | Entry: O=C(NN1C(=O)CS(=O)(=O)C1c1cccc(F)c1)c1ccncc1 (stereo unspecified)
inactive

Field: outcome | Entry: "O=C(c1ccc(Cl)cc1)c1ccc(OCCCCCCCCCCOc2ccc(C(=O)c3ccc(Cl)cc3)cc2)cc1"
inactive

Field: outcome | Entry: CCCCCCCCCCCCCCCCCCN(C)CC(COC)OP(=O)([O-])OCC[N+](C)(C)C (stereo unspecified)
active

Field: outcome | Entry: CC(=O)Nc1ccc(S(=O)(=O)[N-]C2C(=O)c3ccccc3C(=O)C2[n+]2ccccc2)cc1 (stereo unspecified)
inactive

Field: outcome | Entry: "CC(C)(C)OC[C@H](O)CC#N"
inactive

Field: outcome | Entry: "Cc1cc(O)cc2c1c(=O)c1ccccc1n2C"
inactive

Field: outcome | Entry: "Cc1cc(N(CCC#N)S(=O)(=O)c2ccccc2)ccc1C=O"
inactive

Field: outcome | Entry: COc1cccc(C(NC2=NCCC=N2)c2cc3c(cc2O)OCO3)c1O (stereo unspecified)
inactive

Field: outcome | Entry: "N=c1oc2ccccc2cc1C(=O)Nc1nccs1"
inactive

Field: outcome | Entry: "CCOC(=O)c1csc(NC(=O)CN(C)C)n1"
inactive

Field: outcome | Entry: CCCCCCCCCCCCCCCCCC(=O)NCC(COP(=O)([O-])OCC[N+](C)(C)C)OC (stereo unspecified)
inactive

Field: outcome | Entry: "O=C/C=C/c1ccco1"
inactive

Field: outcome | Entry: CC1C=CC(C)C2(O)C(=O)NC(O)C12 (stereo unspecified)
inactive

Field: outcome | Entry: "CC1=[N+]([O-])C(C)(C)N(O)C1(C)C"
inactive

Field: outcome | Entry: CC(C)(C)NCC(COc1ccc([N+](=O)[O-])cc1)OP(c1ccccc1)c1ccccc1 (stereo unspecified)
inactive

Field: outcome | Entry: "O=C(NC1CCCCC1)c1cc2ccccc2cc1O"
inactive

Origin of the recorded values: ChEMBL document CHEMBL1201862
